meta.source: patent US20250152585A1

# Target Of Assay: full length N-terminally FLAG-tagged PARP1 (Homo sapiens, UniProt P09874)
# Protocol Summary: PARP1 probe displacement HTRF assay
# Conditions: read-out: PARP1 HTRF; binned Kd, PARP1 probe displacement HTRF
Value Kind: Kd

Examples from the recorded data:
[
  {
    "Compound": "CNC(=O)c1ccc(N2CCC(N3CCC(c4nc5cnccc5c(=O)[nH]4)C3)CC2)cn1 (single isomer, unassigned) [Compound 84b]",
    "Kd": "10 to 100 nM"
  },
  {
    "Compound": "CNC(=O)c1ccc(N2CCC(N3CCC(c4nc5ccc(Cl)cc5c(=O)[nH]4)C3)CC2)cn1 (racemic) [Compound 49rac]",
    "Kd": "< 10 nM"
  },
  {
    "Compound": "CNC(=O)c1ccc(N2CCC(N3CCCC(c4nc5c(c(C(F)(F)F)nn5C)c(=O)[nH]4)C3)CC2)cn1 (single isomer, unassigned) [Compound 190a]",
    "Kd": "100 to 1000 nM"
  },
  {
    "Compound": "O=c1[nH]c(C2CCN(C3CCN(c4ccc(Cl)cc4)CC3)C2)nc2ccccc12 (single isomer, unassigned) [Compound 43a]",
    "Kd": "10 to 100 nM"
  },
  {
    "Compound": "CNC(=O)c1ccc(N2CCC(N3CCC(c4nc5cccc(Cl)c5c(=O)[nH]4)C3)CC2)cn1 (single isomer, unassigned) [Compound 85a]",
    "Kd": "10 to 100 nM"
  }
]

Attention now turns to another entry.
// query Entry CNC(=O)c1ccc(N2CCC(N3CCCC(c4ncc(CC(F)(F)F)c(=O)[nH]4)C3)CC2)cn1 (single isomer, unassigned) [Compound 212a] : reported Kd = ?
// result 100 to 1000 nM

====

# Target Of Assay: full length N-terminally FLAG-tagged PARP1 (Homo sapiens)
# Protocol Summary: PARP1 probe displacement HTRF assay
# Conditions: read-out: PARP1 HTRF; binned Kd, PARP1 probe displacement HTRF
Value Kind: Kd

Examples from the recorded data:
[
  {
    "Compound": "CNC(=O)c1ccc(N2CCC(N3CCCC(c4nc5ccccc5c(=O)[nH]4)C3)CC2)c(C(F)(F)F)n1 (racemic)",
    "Value Kind": "Kd",
    "Value Observed": "0.01 to 0.1 µM"
  },
  {
    "Compound": "CNC(=O)c1cnc(N2CCC(N3CCC(c4nc5ccccc5c(=O)[nH]4)C3)CC2)cn1 (single isomer, unassigned) [Compound 96b]",
    "Value Kind": "Kd",
    "Value Observed": "0.1 to 1 µM"
  }
]

Attention now turns to another entry.
// query Entry CNC(=O)c1ccc(N2CCC(N3CCC(c4cc5cccc(F)c5c(=O)[nH]4)C3)CC2)c(C)n1 (single isomer, unassigned) [Compound 206a] : reported Kd = ?
// result < 0.01 µM

====

# Target Of Assay: UniProt P09874
# Protocol Summary: PARP1 biochemical DELFIA assay (auto-PARylation)
# Design: recombinant full length human N-terminally FLAG-tagged PARP1
# Conditions: binned IC50, biochemical auto-PARylation assay
pIC50: −log10 of the molar value.
Value Kind: pIC50

Examples from the recorded data:
[
  {
    "Compound": "CNC(=O)c1ccc(N2CCC(N3CCC(c4[nH]c(=O)c5ccccc5c4F)C3)CC2)cn1 (racemic)",
    "Value Kind": "pIC50",
    "Value Observed": "> 8.00"
  },
  {
    "Compound": "CS(=O)(=O)Nc1ccc(N2CCC(N3CCC(c4cc5ccccc5c(=O)[nH]4)C3)CC2)cn1 (single isomer, unassigned) [Compound 252a]",
    "Value Kind": "pIC50",
    "Value Observed": "6.00 to 7.00"
  },
  {
    "Compound": "CS(=O)(=O)NC(=O)c1ccc(N2CCC(N3CCC(c4cc5ccccc5c(=O)[nH]4)C3)CC2)cn1 (racemic)",
    "Value Kind": "pIC50",
    "Value Observed": "7.00 to 8.00"
  },
  {
    "Compound": "CNC(=O)c1ccc(N2CCC(N3CCC(c4cnc(CC(F)(F)F)c(=O)[nH]4)C3)CC2)cn1 (single isomer, unassigned) [Compound 287a]",
    "Value Kind": "pIC50",
    "Value Observed": "7.00 to 8.00"
  },
  {
    "Compound": "CNC(=O)c1ccc(N2CCC(N3CCC(c4nc5ccc(F)c(F)c5c(=O)[nH]4)C3)CC2)cn1 (single isomer, unassigned) [Compound 222a]",
    "Value Kind": "pIC50",
    "Value Observed": "> 8.00"
  },
  {
    "Compound": "CCc1ccc(C2CCN(C3CCN(c4ccc(C(=O)NC)cc4)CC3)C2)[nH]c1=O (single isomer, unassigned) [Compound 355a]",
    "Value Kind": "pIC50",
    "Value Observed": "6.00 to 7.00"
  },
  {
    "Compound": "CNC(=O)c1ccc(N2CCC(N3CC4(c5nc6c(c(=O)[nH]5)CCC6)CC3C4)CC2)cn1",
    "Value Kind": "pIC50",
    "Value Observed": "> 8.00"
  },
  {
    "Compound": "CCc1ccc(C2CCN(C3CCN(c4ccc(C(=O)NC5CC5)nc4C#N)CC3)C2)[nH]c1=O (single isomer, unassigned) [Compound 409b]",
    "Value Kind": "pIC50",
    "Value Observed": "> 8.00"
  }
]

// query Entry CC(=O)Nc1ccc(N2CCC(N3CCC(c4cc5ccccc5c(=O)[nH]4)C3)CC2)cn1 (single isomer, unassigned) [Compound 306a] : reported pIC50 = ?
// result 6.00 to 7.00

// query Entry CNC(=O)c1ccc(N2CCC(N3CCC(c4nc5c(c(=O)[nH]4)COC5)C3)CC2)cn1 (single isomer, unassigned) [Compound 272a] : reported pIC50 = ?
// result < 5.00

// query Entry CC(=O)NC(=O)c1ccc(N2CCC(N3CCC(c4cc5ccccc5c(=O)[nH]4)C3)CC2)cc1 (single isomer, unassigned) [Compound 341a] : reported pIC50 = ?
// result > 8.00

// query Entry CCc1ccc(C2CCN(C3CCN(c4ccc(C#N)cc4)CC3)C2)[nH]c1=O (single isomer, unassigned) [Compound 317b] : reported pIC50 = ?
// result > 8.00

// query Entry CNC(=O)c1cnc(N2CCC(N3CCC(c4cc5ccccc5c(=O)[nH]4)C3)CC2)s1 (racemic) [Compound 253rac] : reported pIC50 = ?
// result 7.00 to 8.00

====

Readings of pIC50 for the listed compounds
# Target Of Assay: full length N-terminally FLAG-tagged PARP1 (Homo sapiens, UniProt P09874)
# Protocol Summary: PARP1 biochemical DELFIA assay (auto-PARylation)
# Set-up: recombinant full length human N-terminally FLAG-tagged PARP1
# Conditions: binned IC50, PARP1 biochemical DELFIA assay
pIC50: −log10 of the molar value.

// query Entry CNC(=O)c1ccc(N2CCC(CN3CCC(c4nc5ccccc5c(=O)[nH]4)CC3)C2)cn1 (single isomer, unassigned) [Compound 50b] : reported pIC50 = ?
// result 7.00 to 8.00

// query Entry CNC(=O)c1ccc(N2CCC(N3CCC(c4nc5ccccc5c(=O)[nH]4)CC3)CC2)cn1 [Compound 1] : reported pIC50 = ?
// result 6.00 to 7.00

====

Readings of pKd for the listed compounds
# Target Of Assay: PARP1 (Homo sapiens)
# Sequence (P09874 whole entry): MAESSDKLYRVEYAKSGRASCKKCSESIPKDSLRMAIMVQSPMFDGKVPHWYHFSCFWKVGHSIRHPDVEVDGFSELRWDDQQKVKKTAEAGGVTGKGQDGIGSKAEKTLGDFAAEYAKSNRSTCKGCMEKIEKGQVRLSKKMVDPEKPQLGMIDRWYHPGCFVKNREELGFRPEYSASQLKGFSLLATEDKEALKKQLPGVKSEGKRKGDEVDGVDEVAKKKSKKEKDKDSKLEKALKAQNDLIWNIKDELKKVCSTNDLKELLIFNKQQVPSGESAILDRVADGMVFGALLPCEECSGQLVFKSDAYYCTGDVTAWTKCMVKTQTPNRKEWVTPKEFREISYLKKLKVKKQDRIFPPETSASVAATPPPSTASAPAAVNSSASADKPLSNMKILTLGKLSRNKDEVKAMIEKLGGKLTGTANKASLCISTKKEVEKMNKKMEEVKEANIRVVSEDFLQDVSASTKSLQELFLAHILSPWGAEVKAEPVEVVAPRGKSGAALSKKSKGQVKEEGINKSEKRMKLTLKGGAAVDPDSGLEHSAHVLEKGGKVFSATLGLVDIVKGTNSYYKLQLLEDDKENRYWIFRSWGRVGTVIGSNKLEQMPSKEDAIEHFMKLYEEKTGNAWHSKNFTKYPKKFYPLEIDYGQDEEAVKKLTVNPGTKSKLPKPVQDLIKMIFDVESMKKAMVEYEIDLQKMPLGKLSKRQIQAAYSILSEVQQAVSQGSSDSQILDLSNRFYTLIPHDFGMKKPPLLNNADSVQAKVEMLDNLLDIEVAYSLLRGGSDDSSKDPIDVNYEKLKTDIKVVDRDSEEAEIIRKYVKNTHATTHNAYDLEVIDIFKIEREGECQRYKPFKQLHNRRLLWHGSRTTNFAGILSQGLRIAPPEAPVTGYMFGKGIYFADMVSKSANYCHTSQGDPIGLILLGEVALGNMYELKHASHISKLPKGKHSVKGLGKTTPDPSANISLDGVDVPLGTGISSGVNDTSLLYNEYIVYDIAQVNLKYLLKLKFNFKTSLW
# Protocol Summary: NanoBRET cellular target occupancy assay, PARP1
# Conditions: HEK293 cells transiently transfected with PARP1-NanoLuc fusion; tracer 11 nM; 2 hours at 37° C.; Kd by Cheng-Prussoff
pKd: −log10 of the molar value.

Examples from the recorded data:
[
  {
    "Compound": "CNC(=O)c1ccc(N2CCC(N3CCC(c4cc5ccc(F)cc5c(=O)[nH]4)C3)CC2)c(C)n1 (single isomer, unassigned) [Compound 196a]",
    "pKd": "> 8.00"
  },
  {
    "Compound": "CNC(=O)c1ccc(N2CCC(N3CCC(c4cc5c(F)ccc(F)c5c(=O)[nH]4)C3)CC2)cn1 (single isomer, unassigned) [Compound 180b]",
    "pKd": "> 8.00"
  }
]

Attention now turns to another entry.
// query Entry CNC(=O)c1ccc(N2CCC(N3CC4(c5nc6c(c(=O)[nH]5)CCCN6)CC3C4)CC2)cn1 : reported pKd = ?
// result 6.00 to 7.00

====

# Target Of Assay: N-terminally FLAG-tagged PARP2 (amino acids 1-583) (Homo sapiens)
# Construct: N-terminally FLAG-tagged PARP2 (amino acids 1-583)
# Sequence (Q9UGN5 whole entry, the tested form may be a part): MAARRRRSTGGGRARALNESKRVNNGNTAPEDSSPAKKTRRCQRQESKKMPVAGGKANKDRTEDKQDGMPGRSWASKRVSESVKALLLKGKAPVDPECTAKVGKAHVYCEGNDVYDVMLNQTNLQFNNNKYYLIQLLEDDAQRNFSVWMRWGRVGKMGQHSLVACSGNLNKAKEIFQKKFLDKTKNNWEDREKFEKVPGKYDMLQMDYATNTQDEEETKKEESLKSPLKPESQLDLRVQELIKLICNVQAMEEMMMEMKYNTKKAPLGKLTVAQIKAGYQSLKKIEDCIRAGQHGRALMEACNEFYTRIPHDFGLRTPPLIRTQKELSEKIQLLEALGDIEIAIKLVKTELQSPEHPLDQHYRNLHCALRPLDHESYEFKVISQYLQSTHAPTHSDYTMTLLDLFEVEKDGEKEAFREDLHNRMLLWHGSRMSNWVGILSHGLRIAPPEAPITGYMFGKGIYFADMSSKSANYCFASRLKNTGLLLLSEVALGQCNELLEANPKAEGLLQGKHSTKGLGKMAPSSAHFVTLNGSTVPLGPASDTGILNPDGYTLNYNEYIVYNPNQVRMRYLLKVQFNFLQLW
# Protocol Summary: PARP2 probe displacement HTRF assay
# Type: binding
# Conditions: binned Kd, probe displacement HTRF
pKd: −log10 of the molar value.
Readings of pKd for the listed compounds

Examples from the recorded data:
[
  {
    "Compound": "CNC(=O)c1ccc(N2CCC(N3CCC(c4nc5sc(C)c(C)c5c(=O)[nH]4)C3)CC2)cn1 (single isomer, unassigned) [Compound 221b]",
    "Target Of Assay": "N-terminally FLAG-tagged PARP2 (amino acids 1-583) (Homo sapiens)",
    "Value Kind": "pKd",
    "Value Observed": "7.00 to 8.00"
  },
  {
    "Compound": "CNC(=O)c1ccc(N2CCC(N3CCC(c4cc5cccc(OC)c5c(=O)[nH]4)C3)CC2)cn1 (single isomer, unassigned) [Compound 249a]",
    "Target Of Assay": "N-terminally FLAG-tagged PARP2 (amino acids 1-583) (Homo sapiens)",
    "Value Kind": "pKd",
    "Value Observed": "< 5.00"
  },
  {
    "Compound": "CNC(=O)c1ccc(N2CCC(N3CCC(c4nc5c(C(F)(F)F)cn(C)c5c(=O)[nH]4)C3)CC2)cn1 (racemic)",
    "Target Of Assay": "N-terminally FLAG-tagged PARP2 (amino acids 1-583) (Homo sapiens)",
    "Value Kind": "pKd",
    "Value Observed": "5.00 to 6.00"
  },
  {
    "Compound": "CCc1ccc(C2CCN(C3CCN(c4ccc(C#N)nc4)CC3)C2)[nH]c1=O (single isomer, unassigned) [Compound 326a]",
    "Target Of Assay": "N-terminally FLAG-tagged PARP2 (amino acids 1-583) (Homo sapiens)",
    "Value Kind": "pKd",
    "Value Observed": "5.00 to 6.00"
  },
  {
    "Compound": "CC(=O)NC(=O)c1ccc(N2CCC(N3CCC(c4cc5ccccc5c(=O)[nH]4)C3)CC2)cc1 (single isomer, unassigned) [Compound 341a]",
    "Target Of Assay": "N-terminally FLAG-tagged PARP2 (amino acids 1-583) (Homo sapiens)",
    "Value Kind": "pKd",
    "Value Observed": "6.00 to 7.00"
  }
]

Attention now turns to another entry.
// query Please tell me: pKd of N#Cc1ccc(N2CCC(N3CCC(c4cc5cccc(F)c5c(=O)[nH]4)C3)CC2)cc1 (single isomer, unassigned) [Compound 314a] , system N-terminally FLAG-tagged PARP2 (amino acids 1-583) (Homo sapiens)?
// result 6.00 to 7.00
